Where these numbers come from: ChEMBL document CHEMBL2029310

experiment: Inhibition of PKA type1 activation at 25 uM
The source made the active and inactive calls. No cut-off for these calls is given here.
Please state which outcome applies, choosing from active, inactive

Examples from the recorded data:
- ITEM_SMILES: "Cc1ccc(C)c(CSc2nc(C3CCCC3)c(C#N)c(=O)[nH]2)c1"
  GROUP_LABEL: "inactive"
- ITEM_SMILES: "Cc1ccc(C)c(CSc2nc(C3CC3)c(C#N)c(=O)[nH]2)c1"
  GROUP_LABEL: "inactive"
- ITEM_SMILES: "O=S(=O)(NCCNC/C=C/c1ccc(Br)cc1)c1cccc2cnccc12"
  GROUP_LABEL: "active"

Hi, do you know how `Cc1ccc(C)c(CSc2nc(C3CCCCC3)c(C#N)c(=O)[nH]2)c1` came out in this test? inactive
